TEST TARGET: T1, human MSLN-FL-his protein (human, UniProt Q13421 296-580)
T1 construct: also called human MSLN full-length protein; hMSLN-FL-his; not shown: His tag
T1 sequence (Q13421 other isoform, or with tags, fused parts or gaps): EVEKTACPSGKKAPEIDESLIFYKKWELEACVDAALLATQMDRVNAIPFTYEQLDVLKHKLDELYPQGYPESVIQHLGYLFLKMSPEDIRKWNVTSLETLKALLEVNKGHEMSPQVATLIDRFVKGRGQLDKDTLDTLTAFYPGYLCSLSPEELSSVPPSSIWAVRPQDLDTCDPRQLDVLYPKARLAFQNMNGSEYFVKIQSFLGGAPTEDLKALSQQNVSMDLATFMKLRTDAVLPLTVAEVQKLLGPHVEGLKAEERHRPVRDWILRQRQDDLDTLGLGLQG
PROTOCOL TEXT: ELISA, coated MSLN full-length;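 note: binding of chimeric antibodies to plate-bound antigen, read by TMB colour after acid stop, antibody incubated 2 h at 37 °C, negative control antibody run alongside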
Recorded OD450 at 0.0001 nM by entry

Ask | Fill in the blank: the reported OD450 at 0.0001 nM of S009-F2.16.10 (antibody, human IgG1, kappa, V domains shown, Human-murine chimeric antibody, human IgG1/kappa constant regions) VH: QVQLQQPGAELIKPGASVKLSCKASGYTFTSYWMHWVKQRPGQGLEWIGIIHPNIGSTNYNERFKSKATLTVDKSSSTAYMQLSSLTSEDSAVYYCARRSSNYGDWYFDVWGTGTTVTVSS VL: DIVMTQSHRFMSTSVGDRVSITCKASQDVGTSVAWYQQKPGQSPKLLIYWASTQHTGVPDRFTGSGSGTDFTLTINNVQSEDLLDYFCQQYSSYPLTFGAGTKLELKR is ____.
Reply | 0.05 OD450

# input for lookup
Ask | Would you kindly share the measured OD450 at 0.0001 nM for S009-F2.13.3 (antibody, human IgG1, kappa, V domains shown, Human-murine chimeric antibody, human IgG1/kappa constant regions) VH: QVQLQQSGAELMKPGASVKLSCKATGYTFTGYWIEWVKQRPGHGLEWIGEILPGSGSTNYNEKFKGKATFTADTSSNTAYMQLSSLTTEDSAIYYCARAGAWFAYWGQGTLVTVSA VL: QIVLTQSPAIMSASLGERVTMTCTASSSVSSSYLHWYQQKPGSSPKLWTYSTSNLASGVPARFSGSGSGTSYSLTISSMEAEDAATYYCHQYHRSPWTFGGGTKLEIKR ?
Reply | 0.06 OD450

Hey, just so you know, these numbers are from patent US20250250357A1.
